The reported measurements were obtained from patent US11071730B2.

Tested on: human HPK1 (MAP4K1) (Homo sapiens (Human), UniProt Q92918)
Sequence (Q92918 17-274): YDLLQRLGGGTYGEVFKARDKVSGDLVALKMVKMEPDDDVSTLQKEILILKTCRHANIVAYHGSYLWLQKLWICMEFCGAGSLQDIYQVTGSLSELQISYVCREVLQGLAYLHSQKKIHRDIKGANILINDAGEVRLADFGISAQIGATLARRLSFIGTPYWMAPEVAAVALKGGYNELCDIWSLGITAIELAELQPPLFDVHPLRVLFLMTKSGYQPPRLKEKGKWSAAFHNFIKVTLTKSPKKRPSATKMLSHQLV
Protocol description: HPK1 IC50 Assay (TR-FRET biochemical kinase assay, STK S1 peptide substrate)
Condition info: recombinant human HPK1 kinase domain 0.15 nM, 10 μM ATP, 1 μM STK S1 peptide; geometric mean of multiple experiments
pIC50: −log10 of the molar value.
Parameter: pIC50

Here are 3 compounds together with their reported answers.
CC(C)n1cnc2cc(-c3ccc4c(c3)N([C@H]3C[C@@H](N5CCC(C)(C)C5)C3)C(=O)C43CCN(C(=O)[C@@H]4OCC[C@@H]4C)CC3)nc(Nc3ccncc3F)c21 [Example 19A]; 9.70
CC(C)n1cnc2cc(-c3ccc4c(c3)N([C@H]3C[C@@H](N5CCC(C)(C)C5)C3)C(=O)C43CCN(C(=O)C4CCCOC4)CC3)nc(Nc3ccncc3F)c21 (some centres unmarked); 9.70
CC(C)n1cnc2cc(-c3ccc4c(c3)N([C@H]3C[C@@H](N5CC[C@](C)(F)C5)C3)C(=O)C43CCN(C4COC4)CC3)nc(Nc3ccncc3F)c21; 9.22

a = CC(C)n1cnc2cc(-c3ccc4c(c3)N([C@H]3C[C@@H](N5CCC(C)(C)C5)C3)C(=O)C43CCN(C(=O)[C@H]4CCOC4)CC3)nc(Nc3ccncc3F)c21
b = CC(C)n1cnc2cc(-c3ccc4c(c3)N([C@H]3C[C@@H](N5CCC6(CC6)C5)C3)C(=O)C4(C)C)nc(Nc3ccncc3F)c21
### Prompt Given the listed records, identify the one among a and b with higher pIC50. Write the label of whichever entry you select.
### Response a
(a: 9.52, b: 9.10)

---

Tested on: human HPK1 (MAP4K1) (Homo sapiens (Human))
Protocol description: HPK1 IC50 Assay (TR-FRET biochemical kinase assay, STK S1 peptide substrate)
Condition info: recombinant human HPK1 kinase domain 0.15 nM, 10 μM ATP, 1 μM STK S1 peptide; geometric mean of multiple experiments
pIC50: −log10 of the molar value.
Parameter: pIC50

CC(C)n1cnc2cc(-c3ccc4c(c3)N([C@H]3C[C@@H](N5CCCCC5)C3)C(=O)C43CCN(C(=O)[C@@H](C)O)CC3)nc(Nc3ccncc3F)c21; 9.30
CC(C)n1cnc2cc(-c3ccc4c(c3)N([C@H]3C[C@@H](NCC(C)(C)O)C3)C(=O)C4(C)C)nc(Nc3ccncc3F)c21; 8.80
CCn1cnc2cc(-c3ccc4c(c3)N([C@H]3C[C@@H](N5CC(C)(C)C5)C3)C(=O)C4(C)C)nc(Nc3ccncc3F)c21; 8.60
CC(C)n1cnc2cc(-c3ccc4c(c3)N([C@H]3C[C@@H](N5CCCCC5)C3)C(=O)C43CCN(C4COC4)CC3)nc(Nc3ccnc(F)c3F)c21; 9.70

1 = CC(C)n1cnc2cc(-c3ccc4c(c3)N([C@H]3C[C@@H](N5CCCCC5)C3)C(=O)[C@]4(C)O)nc(Nc3ccncc3F)c21 [Example 55B]
2 = COc1cc(F)c(Nc2nc(-c3ccc4c(c3)N([C@H]3C[C@@H](N5CCCCC5)C3)C(=O)C43CCN(C(C)=O)CC3)cc3ncn(C(C)C)c23)cn1
### Prompt Of 1 versus 2 , which is the one with smaller reported pIC50? Write the label of whichever entry you select.
### Response 1

---

Tested on: human HPK1 (MAP4K1) (Homo sapiens (Human))
Protocol description: HPK1 IC50 Assay (TR-FRET biochemical kinase assay, STK S1 peptide substrate)
Condition info: recombinant human HPK1 kinase domain 0.15 nM, 10 μM ATP, 1 μM STK S1 peptide; geometric mean
pIC50: −log10 of the molar value.
Parameter: pIC50

1 = CC(C)n1cnc2cc(-c3ccc4c(c3)N([C@H]3C[C@@H](N5CCCCC5)C3)C(=O)C43CCN(C(=O)[C@@H]4CCC[C@@H]4O)CC3)nc(Nc3ccncc3F)c21
2 = COC(C)(C)CN(C)[C@H]1C[C@@H](N2C(=O)C3(CCN(C(C)=O)CC3)c3ccc(-c4cc5ncn(C(C)C)c5c(Nc5ccncc5F)n4)cc32)C1
### Prompt Given the listed records, identify the one among 1 and 2 with higher pIC50. Write the label of whichever entry you select.
### Response 1
(1: 9.52, 2: 8.35)

---

Tested on: human HPK1 (MAP4K1) (Homo sapiens (Human))
Protocol description: HPK1 IC50 Assay (TR-FRET biochemical kinase assay, STK S1 peptide substrate)
Condition info: recombinant human HPK1 kinase domain 0.15 nM, 10 μM ATP, 1 μM STK S1 peptide; geometric mean
Parameter: IC50 (nM)

CC(C)n1cnc2cc(-c3ccc4c(c3)N([C@H]3C[C@@H](N5CCC(C)(C)C5)C3)C(=O)C43CCN(C(=O)c4cocn4)CC3)nc(Nc3ccncc3F)c21; 0.3

P = CC(C)n1cnc2cc(-c3ccc4c(c3)N([C@H]3C[C@@H](N5CCCCC5)C3)C(=O)C43CCN(C(=O)C4(CO)CC4)CC3)nc(Nc3ccncc3F)c21
Q = CC(=O)N1CCC2(CC1)C(=O)N([C@H]1C[C@@H](N3CCCCC3)C1)c1cc(-c3cc4ncn(C(C)C)c4c(Nc4cc(CO)ncc4F)n3)ccc12
### Prompt Of P versus Q , which is the one with smaller reported IC50? Write the label of whichever entry you select.
### Response P
(P: 0.3 nM, Q: 1 nM)

---

Tested on: human HPK1 (MAP4K1) (Homo sapiens (Human))
Protocol description: HPK1 IC50 Assay (TR-FRET biochemical kinase assay, STK S1 peptide substrate)
Condition info: recombinant human HPK1 kinase domain 0.15 nM, 10 μM ATP, 1 μM STK S1 peptide; geometric mean
Parameter: IC50 (nM)

Here are 6 compounds together with their reported answers.
CC(C)n1cnc2cc(-c3ccc4c(c3)N([C@H]3C[C@@H](N5CCC(C)(C)C5)C3)C(=O)C43CCN(C(=O)c4nccs4)CC3)nc(Nc3ccncc3F)c21; 0.1
CCn1cnc2cc(-c3ccc4c(c3)N([C@H]3C[C@@H](N5CCCCC5)C3)C(=O)C43CCN(C4COC4)CC3)nc(Nc3ccncc3F)c21; 0.8
CC(C)n1cnc2cc(-c3ccc4c(c3)N([C@H]3C[C@@H](N5CCCCC5)C3)C(=O)C43CCN(C(=O)C4(C(C)C)COC4)CC3)nc(Nc3ccncc3F)c21; 0.08
CC(C)n1cnc2cc(-c3ccc4c(c3)N([C@H]3C[C@@H](N5CCCCC5)C3)C(=O)C43CCN(C(=O)[C@@H](C)O)CC3)nc(Nc3ccnc(F)c3F)c21; 0.1
CC(C)n1cnc2cc(-c3ccc4c(c3)N([C@H]3C[C@@H](N5CCC(C)(C)C5)C3)C(=O)C4(C)C)nc(Nc3ccncc3F)c21; 0.6
CC(C)n1cnc2cc(-c3ccc4c(c3)N([C@H]3C[C@@H](N5CCCCC5)C3)C(=O)C4(C)O)nc(Nc3ccnc(F)c3F)c21 (some centres unmarked); 0.3

P = CC(C)n1cnc2cc(-c3ccc4c(c3)N([C@H]3C[C@@H](N5CC6CCC(C6)C5)C3)C(=O)C43CCN(C(=O)CO)CC3)nc(Nc3ccncc3F)c21
Q = CC(=O)N1CCC2(CC1)C(=O)N([C@H]1C[C@@H](N3CCC4CC4C3)C1)c1cc(-c3cc4ncn(C(C)C)c4c(Nc4ccncc4F)n3)ccc12 (some centres unmarked)
### Prompt Given the listed records, identify the one among P and Q with higher IC50. Write the label of whichever entry you select.
### Response Q
(Q: 0.4 nM, P: 0.07 nM)

a = CNC(=O)c1cc(Nc2nc(-c3ccc4c(c3)N([C@H]3C[C@@H](N5CCCCC5)C3)C(=O)C4(C)C)cc3ncn(C(C)C)c23)ncc1C
b = CCn1cnc2cc(-c3ccc4c(c3)N([C@H]3C[C@@H](N5CCCCC5)C3)C(=O)C43CCN(C(=O)C(C)(C)C)CC3)nc(Nc3ccncc3F)c21
### Prompt Given the listed records, identify the one among a and b with higher IC50. Write the label of whichever entry you select.
### Response a

---

Tested on: human HPK1 (MAP4K1) (Homo sapiens (Human))
Protocol description: HPK1 IC50 Assay (TR-FRET biochemical kinase assay, STK S1 peptide substrate)
Condition info: recombinant human HPK1 kinase domain 0.15 nM, 10 μM ATP, 1 μM STK S1 peptide; geometric mean of multiple experiments
pIC50: −log10 of the molar value.
Parameter: pIC50

Here are 3 molecules together with their reported answers.
CC(C)n1cnc2cc(-c3ccc4c(c3)N([C@H]3C[C@@H](N5CCCCC5)C3)C(=O)C4(C)O)nc(Nc3ccncc3F)c21 (stereo partly shown) [Example 55]; 9.05
CC(C)n1cnc2cc(-c3ccc4c(c3)N([C@H]3C[C@@H](N5CC(C)(C)C[C@H]5CO)C3)C(=O)C43CCN(C4COC4)CC3)nc(Nc3ccncc3F)c21 [Example 38]; 8.85
Cc1cc(Nc2nc(-c3ccc4c(c3)N([C@H]3C[C@@H](NCC(C)(C)O)C3)C(=O)C4(C)C)cc3ncn(C(C)C)c23)c(F)cn1 [Example 53]; 8.68

A = CC(C)n1cnc2cc(-c3ccc4c(c3)N([C@H]3C[C@@H](N5CCCCC5)C3)C(=O)C43CCN(C(=O)C(C)(C)O)CC3)nc(Nc3ccncc3F)c21 [Example 3]
B = CC(=O)N1CCC2(CC1)C(=O)N([C@H]1C[C@@H](N3CCCCC3)C1)c1cc(-c3cc4ncn(C(C)C)c4c(Nc4cc(C)ncc4F)n3)ccc12 [Example 31]
### Prompt Given the listed records, identify the one among A and B with higher pIC50. Write the label of whichever entry you select.
### Response A
(A: 9.22, B: 8.96)

A = CC(C)n1cnc2cc(-c3ccc4c(c3)N([C@H]3C[C@@H](N5CC6CCC5CC6)C3)C(=O)C4(C)C)nc(Nc3ccncc3F)c21 [Example 58]
B = CC(C)n1cnc2cc(-c3ccc4c(c3)N([C@H]3C[C@@H](N5CCCC(C)(C)C5)C3)C(=O)C4(C)C)nc(Nc3ccc(=O)[nH]c3)c21 [Example 82]
### Prompt Of A versus B , which is the one with smaller reported pIC50? Write the label of whichever entry you select.
### Response A

A = CC(C)n1cnc2cc(-c3ccc4c(c3)N([C@H]3C[C@@H](N5CCCCC5)C3)C(=O)C4(C)C)nc(Nc3c(F)cncc3F)c21 [Example 65]
B = CC(=O)N1CCC2(CC1)C(=O)N([C@H]1C[C@@H](N3CCC(C)(C)C3)C1)c1cc(-c3cc4ncn(C(C)C)c4c(Nc4ccncc4F)n3)ccc12 [Example 29]
C = CC(=O)N1CCC2(CC1)C(=O)N([C@H]1C[C@@H](N3CC4CCC(C3)O4)C1)c1cc(-c3cc4ncn(C(C)C)c4c(Nc4ccncc4F)n3)ccc12 [Example 34]
D = CC(C)n1cnc2cc(-c3ccc4c(c3)N([C@H]3C[C@@H](N5CCCCC5)C3)C(=O)C43CCN(C(=O)C45CC(F)(C4)C5)CC3)nc(Nc3ccncc3F)c21 [Example 28]
### Prompt Put the molecules in ascending order of pIC50. Could you list the labels in the order requested?
### Response A, B, C, D
(A: 9.15, B: 9.40, C: 9.70, D: 10.00)

P = CC(=O)N1CCC2(CC1)C(=O)N([C@H]1C[C@@H](N3CCCCC3)C1)c1cc(-c3cc4ncn(C(C)C)c4c(Nc4ccncc4F)n3)ccc12 [Example 67]
Q = CC(C)n1cnc2cc(-c3ccc4c(c3)N([C@H]3C[C@@H](N5CCC(C)(C)C5)C3)C(=O)C43CCN(C(=O)[C@@H]4CCCO4)CC3)nc(Nc3ccncc3F)c21 [Example 13]
R = CC(C)n1cnc2cc(-c3ccc4c(c3)N([C@H]3C[C@@H](N5CCCCC5)C3)C(=O)C4(C)C)nc(Nc3ccncc3F)c21 [Example 83]
### Prompt Put the molecules in ascending order of pIC50. Could you list the labels in the order requested?
### Response R, P, Q
(R: 9.10, P: 9.30, Q: 9.70)
